Target: AR (Homo sapiens, UniProt P10275)
Sequence (P10275 1-920): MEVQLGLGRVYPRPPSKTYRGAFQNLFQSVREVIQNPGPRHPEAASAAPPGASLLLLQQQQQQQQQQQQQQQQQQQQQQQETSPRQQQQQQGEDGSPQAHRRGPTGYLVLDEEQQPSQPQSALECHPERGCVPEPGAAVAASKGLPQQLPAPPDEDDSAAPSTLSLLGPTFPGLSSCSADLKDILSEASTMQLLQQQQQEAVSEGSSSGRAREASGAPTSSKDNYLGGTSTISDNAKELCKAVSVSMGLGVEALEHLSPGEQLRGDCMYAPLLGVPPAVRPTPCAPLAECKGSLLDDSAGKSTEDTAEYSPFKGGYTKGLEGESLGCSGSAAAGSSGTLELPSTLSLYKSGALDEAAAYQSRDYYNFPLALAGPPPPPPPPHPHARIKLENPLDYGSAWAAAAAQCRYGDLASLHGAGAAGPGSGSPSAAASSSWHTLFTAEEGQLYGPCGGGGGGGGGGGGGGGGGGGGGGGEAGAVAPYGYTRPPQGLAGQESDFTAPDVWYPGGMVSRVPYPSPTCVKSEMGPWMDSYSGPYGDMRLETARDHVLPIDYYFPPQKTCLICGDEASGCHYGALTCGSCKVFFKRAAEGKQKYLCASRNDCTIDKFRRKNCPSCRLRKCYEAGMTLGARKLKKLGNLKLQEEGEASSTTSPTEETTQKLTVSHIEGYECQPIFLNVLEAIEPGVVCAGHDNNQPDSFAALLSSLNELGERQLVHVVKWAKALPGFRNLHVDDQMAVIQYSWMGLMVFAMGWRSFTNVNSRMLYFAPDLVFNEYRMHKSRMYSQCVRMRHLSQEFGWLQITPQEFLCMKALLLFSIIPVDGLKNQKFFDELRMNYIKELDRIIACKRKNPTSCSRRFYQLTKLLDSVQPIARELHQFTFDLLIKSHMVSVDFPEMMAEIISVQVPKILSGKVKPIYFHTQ
Experiment: AR reporter gene (luciferase) assay, co-treatment with 1 nM R1881
Assay type: cell-based
Settings: 10 μM compound, inhibition rate as ratio to R1881 control, read-out: AR antagonistic activity% (10 μM)
readout: activity at 10 µM (%)
Just the number in %, nothing appended.

| givenSmiles | targetSystem | activity at 10 µM / % |
| --- | --- | --- |
| FC(F)(F)c1ccc(OCCc2ccc(CN3CCN(C(c4ccccc4)c4ccccc4)CC3)cc2)cc1 | AR (Homo sapiens, UniProt P10275) | 47.3 |

Now consider the entry below.
Which activity at 10 µM is listed for Clc1cc(Cl)cc(OCCc2ccc(CN3CCN(C(c4ccccc4)c4ccccc4)CC3)cc2)c1 ? 51.2

====

Target: AR (Homo sapiens, UniProt P10275)
Sequence (P10275 1-920): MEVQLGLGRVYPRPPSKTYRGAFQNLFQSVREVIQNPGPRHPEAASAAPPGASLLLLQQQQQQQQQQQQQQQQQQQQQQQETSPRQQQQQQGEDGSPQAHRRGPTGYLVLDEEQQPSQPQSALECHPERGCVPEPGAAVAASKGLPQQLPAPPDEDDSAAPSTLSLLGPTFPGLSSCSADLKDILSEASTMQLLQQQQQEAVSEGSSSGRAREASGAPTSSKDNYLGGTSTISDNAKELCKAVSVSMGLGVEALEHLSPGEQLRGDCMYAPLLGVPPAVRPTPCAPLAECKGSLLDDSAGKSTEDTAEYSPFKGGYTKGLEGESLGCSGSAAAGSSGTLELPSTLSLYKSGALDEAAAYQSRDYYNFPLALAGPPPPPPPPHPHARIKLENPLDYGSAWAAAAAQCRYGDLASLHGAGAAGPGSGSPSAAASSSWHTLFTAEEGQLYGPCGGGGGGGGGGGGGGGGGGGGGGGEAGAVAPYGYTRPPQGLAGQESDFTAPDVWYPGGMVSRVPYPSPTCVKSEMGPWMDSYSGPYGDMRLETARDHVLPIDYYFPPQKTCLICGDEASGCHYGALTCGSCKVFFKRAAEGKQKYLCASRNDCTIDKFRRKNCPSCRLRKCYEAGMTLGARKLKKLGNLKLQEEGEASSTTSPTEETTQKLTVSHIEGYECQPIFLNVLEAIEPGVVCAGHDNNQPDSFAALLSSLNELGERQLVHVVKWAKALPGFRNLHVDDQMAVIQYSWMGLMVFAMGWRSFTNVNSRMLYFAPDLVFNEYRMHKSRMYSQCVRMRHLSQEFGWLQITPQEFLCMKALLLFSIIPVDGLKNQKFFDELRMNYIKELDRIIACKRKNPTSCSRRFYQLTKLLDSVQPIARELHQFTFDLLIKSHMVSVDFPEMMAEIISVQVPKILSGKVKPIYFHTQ
Assay: AR reporter gene (luciferase) assay, co-treatment with 1 nM R1881
Assay type: cell-based
Conditions: 10 μM compound, inhibition rate as ratio to R1881 control, read-out: AR antagonistic activity% (10 μM)
Measured activity at 10 µM of individual entries
Just the number in %, nothing appended.

| molecule | unit | activity at 10 µM |
| --- | --- | --- |
| Clc1ccc(OCCc2ccc(CN3CCN(C(c4ccccc4)c4ccccc4)CC3)cc2)cc1 [Compound 21] | % | 49.4 |

Which activity at 10 µM is listed for Cc1cc(C)cc(OCCc2ccc(CN3CCN(C(c4ccccc4)c4ccccc4)CC3)cc2)c1 [Compound 7] ? 50.1

Next molecule up: c1ccc(C(c2ccccc2)N2CCN(Cc3ccc(CCOc4cccc5ccccc45)cc3)CC2)cc1 [Compound 22] 40.3

====

Measured IC50 of individual entries
Test system: LNCaP
Experiment: In vitro cytotoxicity, CCK-8 assay
Assay type: cell-based, human
Details: Homo sapiens, LNCaP, LNCaP cells, CCK-8, mean ± SD of three trials
Procedure: PC-3 and WPMY-1 cells were cultured in Dulbecco’s modiffcation Eagle’s medium (DMEM, Invitrogen, Carlsbad, CA, United States) supplemented with 10% fetal bovine serum (FBS, Hyclone, Logan, UT, United States), 100 U/mL penicillin and 0.1 mg/mL streptomycin (Invitrogen). […] The proliferative capacity of cells was evaluated through the implementation of a Cell Counting Kit-8 (CCK-8) assay, supplied by Dojindo (Japan), to quantify cellular growth. […]

# annotated cases, reported IC50 shown
| molecule | IC50 |
| --- | --- |
| CCOc1ccc(OCCc2ccc(CN3CCN(C(c4ccccc4)c4ccccc4)CC3)cc2)cc1 [Compound 16] | > 50 µM |
| COc1ccccc1N1CCN(CC(O)COc2cccc3ccccc23)CC1 (stereo not shown) [Naftopidil, reference compound] | 22.4 µM |
| Brc1ccc(OCCc2ccc(CN3CCN(C(c4ccccc4)c4ccccc4)CC3)cc2)cc1 [Compound 23] | < 5 µM |
| FC(F)(F)c1ccc(OCCc2ccc(CN3CCN(C(c4ccccc4)c4ccccc4)CC3)cc2)cc1 [Compound 24] | 14.6 µM |
| Clc1ccc(OCCc2ccc(CN3CCN(C(c4ccccc4)c4ccccc4)CC3)cc2)cc1Cl [Compound 10] | > 50 µM |
| Brc1ccccc1OCCc1ccc(CN2CCN(C(c3ccccc3)c3ccccc3)CC2)cc1 [Compound 14] | > 50 µM |

Which IC50 is listed for Ic1ccc(OCCc2ccc(CN3CCN(C(c4ccccc4)c4ccccc4)CC3)cc2)cc1 [Compound 9] ? > 50 µM

Next molecule up: c1ccc(C(c2ccccc2)N2CCN(Cc3ccc(CCOc4ccc5c(c4)CCCC5)cc3)CC2)cc1 [Compound 18] > 50 µM

Next molecule up: N#Cc1ccc(OCCc2ccc(CN3CCN(C(c4ccccc4)c4ccccc4)CC3)cc2)cc1 [Compound 8] 22.4 µM

Next molecule up: Fc1ccc(OCCc2ccc(CN3CCN(C(c4ccccc4)c4ccccc4)CC3)cc2)cc1 [Compound 6] > 50 µM

====

Quick record of pIC50 values for AR-LBD (GST) (Rattus norvegicus).
Worth noting: pIC50 values are minus log10 of concentrations stated in mol/L.

| compound | readout | endpointValue |
| --- | --- | --- |
| c1ccc(C(c2ccccc2)N2CCN(Cc3ccc(CCOc4cccc5ccccc45)cc3)CC2)cc1 [Compound 22] | pIC50 | 5.52 |

Now consider the entry below.
Which pIC50 is listed for FC(F)(F)c1ccc(OCCc2ccc(CN3CCN(C(c4ccccc4)c4ccccc4)CC3)cc2)cc1 [Compound 24] ? 5.54

====

Test system: LNCaP
Test: In vitro cytotoxicity, CCK-8 assay
Assay type: cell-based, human
Conditions: Homo sapiens, LNCaP, LNCaP cells, CCK-8, mean ± SD of three trials
readout: IC50

# annotated cases, reported IC50 shown
| compound | IC50 |
| --- | --- |
| Clc1cc(Cl)cc(OCCc2ccc(CN3CCN(C(c4ccccc4)c4ccccc4)CC3)cc2)c1 [Compound 11] | > 50 µM |
| c1ccc(OCCc2ccc(CN3CCN(C(c4ccccc4)c4ccccc4)CC3)cc2)cc1 [Compound 5] | > 50 µM |

Now consider the entry below.
Which IC50 is listed for Cc1cc(C)cc(OCCc2ccc(CN3CCN(C(c4ccccc4)c4ccccc4)CC3)cc2)c1 [Compound 7] ? > 50 µM
